# Tested on: SN12C
# assay-details: Antiproliferative activity against human SN12C cells assessed as cell viability at 10^-5 M incubated for 48 hrs by sulforhodamine B assay relative to control
# Format: functional
# run-parameters: read-out: Activity
measurement-type: viability at 10 µM (%)

compound: COc1cc2c(c(OC)c1OC)C(=O)NC1C2CC(O)C(O)C1O (racemic)
measurement-type: viability at 10 µM
result: 104
--
compound: CCOc1cc2c(cc1OCC)C1CC(O)C(O)C(O)C1NC2=O (racemic)
measurement-type: viability at 10 µM
result: 100
--
compound: CCOc1cc2c(c(OCC)c1OCC)C(=O)NC1C2CC(O)C(O)C1O (racemic)
measurement-type: viability at 10 µM
result: 108
--
compound: COc1c2c(cc3c1C(=O)NC1C3CC(O)C(O)C1O)OCCO2 (racemic)
measurement-type: viability at 10 µM
result: 103
--
compound: O=C1NC2C(CC(O)C(O)C2O)c2cc3c(c(O)c21)OCCO3 (racemic)
measurement-type: viability at 10 µM
result: -9.95
--
compound: CCOc1c(OC)cc2c(c1O)C(=O)NC1C2CC(O)C(O)C1O (racemic)
measurement-type: viability at 10 µM
result: 104
--
compound: O=C1NC2C(CC(O)C(O)C2O)c2cc3c(cc21)OCCO3 (racemic)
measurement-type: viability at 10 µM
result: 105
--
compound: CCCOc1cc2c(cc1OCC)C1CC(O)C(O)C(O)C1NC2=O (racemic)
measurement-type: viability at 10 µM
result: 112
--
compound: CCOc1c(OC)cc2c(c1OCC)C(=O)NC1C2CC(O)C(O)C1O (racemic)
measurement-type: viability at 10 µM
result: 101
--
compound: CCOc1cc2c(c(O)c1OCC)C(=O)NC1C2CC(O)C(O)C1O (racemic)
measurement-type: viability at 10 µM
result: 103
--
compound: O=C1NC2C(CC(O)C(O)C2O)c2cc3c(c(O)c21)OCO3 (racemic)
measurement-type: viability at 10 µM
result: -18.4
--
compound: CCOc1cc2c(c(OC)c1OCC)C(=O)NC1C2CC(O)C(O)C1O (racemic)
measurement-type: viability at 10 µM
result: 104
--
compound: COc1cc2c(c3c1OCCO3)C(=O)NC1C2CC(O)C(O)C1O (racemic)
measurement-type: viability at 10 µM
result: 99.8
